Where these numbers come from: ChEMBL document CHEMBL1201862

- subject-of-test: Leucine aminopeptidase (Plasmodium falciparum 3D7, UniProt Q8IL11)
- Sequence (Q8IL11 whole entry): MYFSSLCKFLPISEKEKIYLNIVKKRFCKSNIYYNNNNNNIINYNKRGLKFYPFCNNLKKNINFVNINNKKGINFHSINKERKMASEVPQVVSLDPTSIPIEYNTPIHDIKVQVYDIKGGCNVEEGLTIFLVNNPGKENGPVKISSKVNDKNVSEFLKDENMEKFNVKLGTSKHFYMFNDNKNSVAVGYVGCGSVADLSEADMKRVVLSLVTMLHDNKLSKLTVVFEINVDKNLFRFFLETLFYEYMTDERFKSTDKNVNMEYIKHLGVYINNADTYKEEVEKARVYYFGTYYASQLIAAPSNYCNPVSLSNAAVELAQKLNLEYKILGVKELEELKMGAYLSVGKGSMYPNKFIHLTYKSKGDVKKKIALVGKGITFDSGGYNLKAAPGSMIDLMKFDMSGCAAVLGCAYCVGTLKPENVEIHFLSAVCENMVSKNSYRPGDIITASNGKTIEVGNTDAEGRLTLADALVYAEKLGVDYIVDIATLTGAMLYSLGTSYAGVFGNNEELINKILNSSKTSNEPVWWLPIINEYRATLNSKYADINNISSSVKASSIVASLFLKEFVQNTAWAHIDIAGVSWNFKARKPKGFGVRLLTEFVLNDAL
- procedure-text: P. falciparum M17LAP inhibitors, primary screen, biochemical, fluorogenic H-Leu-NHMec substrate, 1536-well (AID 1619)
- Type: functional
The source made the active and inactive calls. No rule for the calls is given here.
IC50 for assorted compounds

compound | reported-measurement
Cc1cccc(N2CCN(C(=O)c3ccccc3NC(=O)C3CC=CCC3C(=O)O)CC2)c1 (stereo unspecified) | 19.1 µM (active)
Cc1cc(=O)[nH]c(SCC(=O)Nc2ccc(Br)cc2)c1C#N | 1.48 µM (active)
Cc1cc(/C=C(\C#N)C(=O)NCc2ccco2)c(C)n1-c1ccc(C(=O)O)cc1 | 41.1 µM (active)
CC1=NNC(=O)C1CCC(=O)N/N=C/C=C/c1ccccc1 (stereo unspecified) | 51.4 µM (active)
CCCCCC(=O)NNC(=S)NC(=O)c1ccc([N+](=O)[O-])cc1 | 49.2 µM (active)

Turning now to a further compound:
Assign IC50 to the following record: CSCCC(NS(=O)(=O)c1ccc2nc(O)c(O)nc2c1)C(=O)O (stereo unspecified)
6.94 µM (active)

----------
- subject-of-test: Induced myeloid leukemia cell differentiation protein Mcl-1 (Homo sapiens, UniProt Q07820)
- Sequence (Q07820 whole entry): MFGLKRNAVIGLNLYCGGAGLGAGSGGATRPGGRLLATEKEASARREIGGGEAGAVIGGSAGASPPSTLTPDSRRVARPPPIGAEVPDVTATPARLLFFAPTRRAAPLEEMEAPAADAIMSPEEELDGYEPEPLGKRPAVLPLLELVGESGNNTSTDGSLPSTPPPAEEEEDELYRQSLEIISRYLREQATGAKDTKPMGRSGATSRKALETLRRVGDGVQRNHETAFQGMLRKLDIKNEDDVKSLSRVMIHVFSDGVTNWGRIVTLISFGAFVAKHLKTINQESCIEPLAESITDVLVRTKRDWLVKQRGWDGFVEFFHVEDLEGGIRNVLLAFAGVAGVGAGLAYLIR
- Type: functional
Active and inactive are the calls of the source.
IC50 for assorted molecules

Guide cases for IC50, answers given:
molecule | subject-of-test | value-type | reported-measurement
Cc1ccc(N2C(=O)NC(=O)/C(=C/c3cnc(-c4ccccc4)nc3)C2=O)cc1C | Induced myeloid leukemia cell differentiation protein Mcl-1 (Homo sapiens, UniProt Q07820) | IC50 | 1660 nM (active)
Cc1ccc2c(c1)c1ccc3c(c1n2C)C(=O)C=CC3=O | Induced myeloid leukemia cell differentiation protein Mcl-1 (Homo sapiens, UniProt Q07820) | IC50 | 1510 nM (active)
Cc1n[nH]c(=S)n(NC(=O)/C=C/C(=O)Nn2c(=S)[nH]nc(C)c2=O)c1=O | Induced myeloid leukemia cell differentiation protein Mcl-1 (Homo sapiens, UniProt Q07820) | IC50 | 4670 nM (active)
N#Cc1c(NC(=O)CSc2ncnc3sccc23)oc(-c2ccco2)c1-c1ccco1 | Induced myeloid leukemia cell differentiation protein Mcl-1 (Homo sapiens, UniProt Q07820) | IC50 | 4690 nM (active)
CNc1ccc(Br)cc(C(=O)/C=C/c2cccc(Cl)c2Cl)c1=O | Induced myeloid leukemia cell differentiation protein Mcl-1 (Homo sapiens, UniProt Q07820) | IC50 | 2630 nM (active)
O=C(/C=C/c1ccc(O)c(O)c1)O[C@H](Cc1ccc(O)c(O)c1)C(=O)O [ROSMARINIC ACID] | Induced myeloid leukemia cell differentiation protein Mcl-1 (Homo sapiens, UniProt Q07820) | IC50 | 2030 nM (active)

Assign IC50 to the following record: O=C1N/C(=N\c2ccccc2)S/C1=C\C=C\c1ccco1
12200 nM (active)

----------
IC50 for assorted compounds
- subject-of-test: UniProtKB P11940
- Sequence (P11940 whole entry): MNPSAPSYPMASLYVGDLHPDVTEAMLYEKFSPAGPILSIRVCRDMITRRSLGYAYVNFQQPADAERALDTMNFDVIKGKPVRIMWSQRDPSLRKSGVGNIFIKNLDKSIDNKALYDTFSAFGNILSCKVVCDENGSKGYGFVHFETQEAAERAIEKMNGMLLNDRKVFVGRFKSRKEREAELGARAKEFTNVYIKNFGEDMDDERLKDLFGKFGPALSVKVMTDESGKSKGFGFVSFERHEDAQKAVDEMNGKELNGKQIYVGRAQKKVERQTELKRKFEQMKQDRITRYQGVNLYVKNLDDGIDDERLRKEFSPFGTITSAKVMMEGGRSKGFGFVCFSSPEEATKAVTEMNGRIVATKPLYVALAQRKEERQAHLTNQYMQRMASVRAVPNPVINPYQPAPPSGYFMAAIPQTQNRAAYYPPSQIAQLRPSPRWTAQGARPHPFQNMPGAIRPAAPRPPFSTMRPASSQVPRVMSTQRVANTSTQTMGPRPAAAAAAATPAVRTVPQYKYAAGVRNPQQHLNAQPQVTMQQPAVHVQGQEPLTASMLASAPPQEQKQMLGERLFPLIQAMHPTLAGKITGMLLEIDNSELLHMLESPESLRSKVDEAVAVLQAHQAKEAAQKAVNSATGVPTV
- procedure-text: MLLE binding blockers, Cy5 peptide tracer – biochemical, fluorescence polarization, Cy5-PAM2 peptide, secondary, miRNA deadenylation inhibitor project, dose response (AID 602260)
- Assay type: functional
- experimental-setup: read-out: IC50_Mean
Active and inactive are the calls of the source. The rule behind the calls is not given here.

Guide cases for IC50, answers given:
molecule | reported-measurement
CCOc1ccc(-c2csc(NNC3=NCCCCC3)n2)cc1 | > 66 µM (inactive)
COc1ccc(NS(=O)(=O)c2ccc(F)c(Cl)c2)cn1 | 46.2 µM (inactive)

Turning now to a further compound:
Assign IC50 to the following record: Cn1sccc1=O
> 66 µM (inactive)
